assay: qHTS assay for measurement of the activity of small molecule inhibitors on Zika virus induced Caspase-3 activity in human iPSC derived neural progenitor cells (hNPCs) (AID 1224857); conditions: hNPCs ZIKV-induced caspase-3/7, Caspase-Glo luminescence, 6 h; series mostly up to 45.7 µM; note: nearly all actives have a fitted effect of over 65% in size
Results filed as inconclusive are left out. Active and inactive are the calls of the source. Calls come from the whole dose curve; as a rule, active = well fitted inhibition curve with a large enough effect; inconclusive = small, poorly fitted or top-dose-only effect; inactive = no such curve, though single readings can be large or run the other way.
QUANTITY_NAME: outcome

Solved entries (count: 6):
[[record]]
compound = "NCCCC(N)(C(=O)O)C(F)F (configuration not stated)"
quantity_name = "outcome"
reported_result = "inactive"

[[record]]
compound = "O=C(Nc1ccc(F)c(C(F)(F)F)c1)Nc1nnc(-c2ccncc2)s1"
quantity_name = "outcome"
reported_result = "inactive"

[[record]]
compound = "CC1(C)CNc2cc(NC(=O)c3cccnc3NCc3ccncc3)ccc21"
quantity_name = "outcome"
reported_result = "inactive"

[[record]]
compound = "COc1cc2nccc(Oc3ccc(NC(=O)NC4CC4)c(Cl)c3)c2cc1C(N)=O"
quantity_name = "outcome"
reported_result = "inactive"

[[record]]
compound = "C[C@]1(c2nc3c(C(N)=O)cccc3[nH]2)CCCN1"
quantity_name = "outcome"
reported_result = "inactive"

[[record]]
compound = "Cc1c(CN2CCN(C(=O)C(C)C)CC2)sc2c(N3CCOCC3)nc(-c3cnc(N)nc3)nc12"
quantity_name = "outcome"
reported_result = "inactive"


INPUT: Given the entry CC(C)C[C@H](NC(=O)[C@@H](O)[C@H](N)Cc1ccccc1)C(=O)O , report its measured outcome.
OUTPUT: inactive

INPUT: Given the entry c1ccc(-c2nn3c(c2-c2ccnc4cc(OCCN5CCOCC5)ccc24)CCC3)nc1 , report its measured outcome.
OUTPUT: inactive

INPUT: Given the entry NC(N)=NC(=O)c1nc(Cl)c(N)nc1N , report its measured outcome.
OUTPUT: inactive

INPUT: Given the entry Fc1ccc(Cl)cc1-c1nc(Nc2ccncc2)c2nccnc2n1 , report its measured outcome.
OUTPUT: inactive

INPUT: Given the entry N[C@@H]1CONC1=O , report its measured outcome.
OUTPUT: inactive

INPUT: Given the entry CC(=O)Oc1ccccc1C(=O)O , report its measured outcome.
OUTPUT: inactive

----------
test: qHTS for Inhibitors of ATXN expression: Validation of Cytotoxic Assay (AID 588349); settings: cytotoxicity counter-screen for ATXN expression inhibitors, cell viability; series mostly up to 57.1 µM;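 note: cells exposed to compound for 72 hr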
Inconclusive results are not listed. Active and inactive are the calls of the source. Calls come from the whole dose curve; as a rule, active = well fitted cell-killing curve with a large enough effect; inconclusive = small, poorly fitted or top-dose-only effect, or effect the other way; inactive = flat fitted curve, though single readings scatter.
QUANTITY_NAME: outcome

[[record]]
compound = "CC(=O)Oc1ccccc1C(=O)O"
quantity_name = "outcome"
reported_result = "inactive"

[[record]]
compound = "Cc1cn[nH]c1"
quantity_name = "outcome"
reported_result = "inactive"

[[record]]
compound = "CC(C)(C)NCC(O)c1ccc(O)c(CO)c1 (configuration not stated)"
quantity_name = "outcome"
reported_result = "inactive"

[[record]]
compound = "CCOC(=O)N1CCC(=C2c3ccc(Cl)cc3CCc3cccnc32)CC1"
quantity_name = "outcome"
reported_result = "inactive"

[[record]]
compound = "Cc1cccc(-c2[nH]c(C(C)(C)C)nc2-c2ccc3nccnc3c2)n1"
quantity_name = "outcome"
reported_result = "inactive"

[[record]]
compound = "NCCCC(N)(C(=O)O)C(F)F (configuration not stated)"
quantity_name = "outcome"
reported_result = "inactive"


INPUT: Given the entry C[C@]12CCC(=O)C=C1CC[C@@H]1[C@@H]2[C@@H](O)C[C@@]2(C)[C@H]1CC[C@]2(O)C(=O)CO , report its measured outcome.
OUTPUT: inactive

INPUT: Given the entry O=C(O)COCCN1CCN(C(c2ccccc2)c2ccc(Cl)cc2)CC1 (configuration not stated) , report its measured outcome.
OUTPUT: inactive

----------
test: qHTS Assay for Identification of Small Molecule Antagonists for NFkB Signaling Pathway. (AID 624479); conditions: NFkB pathway reporter cell assay, antagonist mode; series mostly up to 38.3 µM;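 note: pathway stimulated with TNF alpha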
Active and inactive are the calls of the source. Calls follow the shape of the full dose curve.
Outcome (select one): yes (active), no (inactive)

[[record]]
substance_smiles = "CCOC(=O)C1=C[C@@]2(CC)CCCN3CCc4c(n1c1ccccc41)[C@H]32"
discrete_label = "no"

[[record]]
substance_smiles = "Nc1nc2[nH]cc(CCc3ccc(C(=O)N[C@@H](CCC(=O)O)C(=O)O)cc3)c2c(=O)[nH]1"
discrete_label = "no"

[[record]]
substance_smiles = "Nc1nccc(-c2ccc3noc(-c4ccc(Cl)cc4)c3c2)n1"
discrete_label = "yes"

[[record]]
substance_smiles = "Cc1cc(C=c2sc3nc4ccccc4n3c2=O)c(C)n1-c1ccccc1"
discrete_label = "no"


Turning now to a further record.
INPUT: Please share the test call associated with C[C@]12CCC(=O)C=C1CC[C@@H]1[C@@H]2[C@@H](O)C[C@@]2(C)[C@H]1CC[C@]2(O)C(=O)CO .
OUTPUT: no

----------
assay: Quantitative High-Throughput drug screen in 47 multiple myeloma cell lines against the NCATS MIPE library collection: INA6_PLB cell viability assay (AID 1918965; note: potency is the fitted concentration of half-maximal effect; nearly all actives have a fitted effect of over 55% in size); details: INA6 myeloma viability, CellTiter-Glo ATP luminescence, 48 h; series mostly up to 45.8 µM
Records with an inconclusive call do not appear. Activity calls are given as the source filed them. The call rests on the fitted dose curve; in most records, active means well fitted cell-killing curve with a large enough effect; inconclusive means small, poorly fitted or top-dose-only effect, or effect the other way; inactive means no such curve, though single readings can be large or run the other way.
QUANTITY_NAME: Potency

INPUT: Given the entry CNC(=O)c1ccc(C)c(-n2c(C)cc(OCc3ccc(F)cc3F)c(Br)c2=O)c1 , report its measured Potency.
OUTPUT: 16.6 µM (active)

INPUT: Given the entry S=C(NCc1ccc2c(c1)OCO2)N1CCN(c2ncnc3c2oc2ccccc23)CC1 , report its measured Potency.
OUTPUT: 1.08 µM (active)

INPUT: Given the entry O=C(Nc1ccc(F)c(C(F)(F)F)c1)Nc1nnc(-c2ccncc2)s1 , report its measured Potency.
OUTPUT: 2.35 µM (active)

INPUT: Given the entry CCCS(=O)(=O)Nc1ccc(F)c(C(=O)c2c[nH]c3ncc(-c4ccc(Cl)cc4)cc23)c1F , report its measured Potency.
OUTPUT: 8.33 µM (active)

INPUT: Given the entry NC(N)=NC(=O)c1nc(Cl)c(N)nc1N , report its measured Potency.
OUTPUT: 5.26 µM (active)

INPUT: Given the entry CS(=O)(=O)c1cccc(CNc2nc(Nc3ccc4c(c3)CCC(=O)N4)ncc2C(F)(F)F)c1 , report its measured Potency.
OUTPUT: 11.8 µM (active)

----------
Test system: DIV14
Experiment: qHTS profiling for inhibitors of Plasmodium falciparum proliferation (AID 504749); note: nearly all actives have a fitted effect of over 60% in size
Conditions: P. falciparum in erythrocytes, SYBR Green DNA, 72 h; series mostly up to 28.7 µM
Protocol: NIH National Institute of Allergy and Infectious Diseases [NIAID] NIH Chemical Genomics Center [NCGC] […] Because mature erythrocytes lack DNA, only Plasmodium-derived DNA is detected. NCGC Assay Protocol Summary: The SYBR Green viability assay was adapted from a method described previously (Plouffe et al., 2008). […] The following morning, fluorescence intensity at 485(14) nm excitation and 535(25) nm emission wavelengths was measured on an EnVision (Perkin Elmer) plate reader. […]
Results filed as inconclusive are left out. Active and inactive are the calls of the source. The call rests on the fitted dose curve; in most records, active means well fitted inhibition curve with a large enough effect; inconclusive means small, poorly fitted or top-dose-only effect; inactive means flat fitted curve, though single readings scatter.
Outcome (select one): active, inactive

// below: answered compounds
[[record]]
compound = "CNC[C@H](O)c1cccc(O)c1"
tgt = "DIV14"
discrete_label = "inactive"

[[record]]
compound = "CC(C)NCC(O)COc1ccc(COCCOC(C)C)cc1 (stereo not drawn)"
tgt = "DIV14"
discrete_label = "inactive"

[[record]]
compound = "CC(=O)Oc1ccccc1C(=O)O"
tgt = "DIV14"
discrete_label = "inactive"

[[record]]
compound = "NC(=O)c1cnccn1"
tgt = "DIV14"
discrete_label = "inactive"

[[record]]
compound = "CCOC(=O)C1=C[C@@]2(CC)CCCN3CCc4c(n1c1ccccc41)[C@H]32"
tgt = "DIV14"
discrete_label = "active"


INPUT: Please share the test call associated with Cc1cn[nH]c1 .
OUTPUT: inactive

INPUT: Please share the test call associated with NNCCc1ccccc1 .
OUTPUT: inactive

INPUT: Please share the test call associated with Cc1ccc(N(CC2=NCCN2)c2cccc(O)c2)cc1 .
OUTPUT: inactive

----------
test: Cell Viability - MRC5 (AID 434); settings: MRC5 lung fibroblast viability, qHTS;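 note: potency is the fitted concentration of half-maximal effect; cells exposed to compound for 40 hours at 37 °C; potency reflects cytotoxicity seen as loss of intracellular ATP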
Records with an inconclusive call do not appear. Activity calls are given as the source filed them. Calls come from the whole dose curve.
QUANTITY_NAME: Potency

Solved entries (count: 5):
[[record]]
substance_smiles = "NC(=O)c1cnccn1"
reported_result = "> 92 µM (inactive)"

[[record]]
substance_smiles = "CC(=O)Oc1ccccc1C(=O)O"
reported_result = "> 92 µM (inactive)"

[[record]]
substance_smiles = "CCCC(CCC)C(=O)O"
reported_result = "> 92 µM (inactive)"

[[record]]
substance_smiles = "Cn1cnc([N+](=O)[O-])c1Sc1ncnc2nc[nH]c12"
reported_result = "> 92 µM (inactive)"

[[record]]
substance_smiles = "O=c1[nH]cnc2[nH]ncc12"
reported_result = "> 92 µM (inactive)"


INPUT: Given the entry NC(N)=NC(=O)c1nc(Cl)c(N)nc1N , report its measured Potency.
OUTPUT: > 92 µM (inactive)
